target: KRas Q61H mutant (Homo sapiens (Human), UniProt P01116, Q61H)
Sequence (P01116-2 other isoform, or with tags, fused parts or gaps Q61H): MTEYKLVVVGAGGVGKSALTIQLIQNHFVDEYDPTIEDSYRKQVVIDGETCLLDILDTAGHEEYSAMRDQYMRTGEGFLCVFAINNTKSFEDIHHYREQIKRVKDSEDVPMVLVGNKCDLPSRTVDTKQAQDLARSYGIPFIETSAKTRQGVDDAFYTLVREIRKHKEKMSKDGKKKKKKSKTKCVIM
test description: Ras GTP binding domain inhibition assay (labeled GTP)
assay context: 20 μM compound; KRas Q61H; read-out: % Inhibition at 20 μM of K-Ras mutant and wild-type protein, KRas Q61H
parameter: inhibition at 20 µM

// known answers, use as guide
Oc1nc(-c2ccccn2)nc2cc(-c3cccc(Br)c3)sc12 [drawing 3564] | 25 to 50%
COc1nc(-c2cn(C)cn2)nc2sc(-c3ccncc3)c(-c3ccccc3)c12 [drawing 3531] | 25 to 50%
Oc1nc(-c2ccccn2)nc2c(CC3CCNC3)csc12 (stereo not shown) [drawing 3526] | 51 to 75%
Cc1sc2c(O)nc(-c3ccccn3)nc2c1Br [drawing 3522] | 1 to 25%
COc1nc(-c2ccccn2)nc2c1c(-c1ccccc1)nn2-c1ccccn1 [drawing 3540] | 51 to 75%
Nc1nc(O)c2sc(-c3cccc(C(=O)N4CCC(O)C4)c3)cc2n1 (stereo not shown) [drawing 3543] | 1 to 25%

Exercise: Fill blank: measured inhibition at 20 µM of the compound Cc1nn(C(C)C)cc1-c1csc2c(O)nc(-c3ccccn3)nc12 [drawing 3506] is ____.
Key: 51 to 75%
